Molecular target: T1, human ASGR-1 mutant construct H203 (human, UniProt P07306 1-291)
T1 construct: Arg/Glu scanning: non-arginine residues were changed to arginine; Transiently expressed on CHO-S cells
T1 sequence: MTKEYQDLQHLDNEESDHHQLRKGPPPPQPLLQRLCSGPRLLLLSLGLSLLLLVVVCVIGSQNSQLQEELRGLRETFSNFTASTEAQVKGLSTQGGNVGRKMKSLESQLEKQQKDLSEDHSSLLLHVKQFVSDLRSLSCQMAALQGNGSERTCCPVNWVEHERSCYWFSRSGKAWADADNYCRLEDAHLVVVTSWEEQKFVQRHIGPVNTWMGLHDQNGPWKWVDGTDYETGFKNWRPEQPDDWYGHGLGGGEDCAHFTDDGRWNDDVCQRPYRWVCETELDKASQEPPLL
Assay: FACS, transfected CHO-S cells, mAb 5 ug/ml
I'd appreciate it if you marked entries Satisfied when FACS Binding Geomean is lower than 10000 and Not satisfied when it is not.

149D11 (antibody, V domains shown, mAb) VH: EVQLLESGGGLVQPGGSLRLSCAASGFTFSSYAMSWVRQAPGKGLEWVSAISGRGGNTFYADSVKGRFTISRDNSKNTLYRQMNSLRAEDTAVYYCAKKDYDYVWGSPYFDYWGQGTLVTVSS VL: DIQMTQSPASVSASVGDRVTITCRASQNISNWLTWYQQKPGKAPKLLIYAASSLQSGVPSRFSGSGSGTDFTLSISSLQPEDFATYYCQQTDSFPFTFGPGTKVDVK ... Satisfied

Exercise: Below 10000 on FACS Binding Geomean? Entry 213B3 (antibody, V domains shown, mAb) VH: QVQLVESGGGVVQPGRSLRLSCAASGFTFSSYGMHWVRQAPGKGLEWVAVIWYDGSNKNYADSVKGRFTISRDNSKNTLYLQMNSLRAEDTAVYYCARDRTVGYDGFDIWGQGTMVTVSS VL: DIQMTQSPSSLSASVGDRVTITCRASQGIGKYLAWFQQKPGKAPKSLISAASSVLSGVPSKFSGSGSGTDFTLTISSLQPEDFATYYCQKYDTYPFTFGPGTKVDIK
Key: Not satisfied

Exercise: Below 10000 on FACS Binding Geomean? Entry 32D6 (antibody, V domains shown, mAb) VH: QVQLVESGGGVVQPGRSLRLSCAASGFTFSSYGMHWVRQAPGKGLEWVTVIWHDGSNAYYADSVKGRFTISRDNSKNTLYLQMNSLRAEDTAVYYCARENSSSYYFDYWGQGTLVTVSS VL: DIQMTQSPSSLSTSVGDRVTITCRASQNIISYLNWYQQKPGKAPKLLMYVASRLQSGVPSRFSGSGSGTDFTLTISSLQAEDFATYYCQQSYSTPYTFGGGTKVAIK
Key: Not satisfied

Exercise: Below 10000 on FACS Binding Geomean? Entry 75G3 (antibody, V domains shown, mAb) VH: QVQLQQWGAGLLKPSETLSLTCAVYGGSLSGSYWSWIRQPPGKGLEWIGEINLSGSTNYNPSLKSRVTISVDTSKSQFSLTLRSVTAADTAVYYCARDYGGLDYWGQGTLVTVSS VL: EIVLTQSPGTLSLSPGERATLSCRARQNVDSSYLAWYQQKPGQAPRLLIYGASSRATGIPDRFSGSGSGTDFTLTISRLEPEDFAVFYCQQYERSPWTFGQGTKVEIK
Key: Not satisfied

Exercise: Below 10000 on FACS Binding Geomean? Entry 194C10 (antibody, V domains shown, mAb) VH: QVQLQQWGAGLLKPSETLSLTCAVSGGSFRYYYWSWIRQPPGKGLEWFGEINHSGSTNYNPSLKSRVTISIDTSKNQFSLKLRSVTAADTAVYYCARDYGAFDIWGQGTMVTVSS VL: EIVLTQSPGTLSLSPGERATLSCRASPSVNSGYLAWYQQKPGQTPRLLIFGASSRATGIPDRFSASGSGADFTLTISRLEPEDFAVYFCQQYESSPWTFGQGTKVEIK
Key: Not satisfied
